Target: Macrophage-stimulating protein receptor (Homo sapiens, UniProt Q04912)
Sequence (Q04912 25-304 limits assumed): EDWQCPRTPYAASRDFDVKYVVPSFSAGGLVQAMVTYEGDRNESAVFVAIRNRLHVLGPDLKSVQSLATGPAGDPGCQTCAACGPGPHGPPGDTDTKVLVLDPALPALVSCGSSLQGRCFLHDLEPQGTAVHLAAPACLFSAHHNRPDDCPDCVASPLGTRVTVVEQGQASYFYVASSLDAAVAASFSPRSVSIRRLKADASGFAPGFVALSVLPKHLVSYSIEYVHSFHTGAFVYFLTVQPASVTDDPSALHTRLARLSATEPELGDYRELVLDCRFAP
Sequence (Q04912 310-1400 limits assumed): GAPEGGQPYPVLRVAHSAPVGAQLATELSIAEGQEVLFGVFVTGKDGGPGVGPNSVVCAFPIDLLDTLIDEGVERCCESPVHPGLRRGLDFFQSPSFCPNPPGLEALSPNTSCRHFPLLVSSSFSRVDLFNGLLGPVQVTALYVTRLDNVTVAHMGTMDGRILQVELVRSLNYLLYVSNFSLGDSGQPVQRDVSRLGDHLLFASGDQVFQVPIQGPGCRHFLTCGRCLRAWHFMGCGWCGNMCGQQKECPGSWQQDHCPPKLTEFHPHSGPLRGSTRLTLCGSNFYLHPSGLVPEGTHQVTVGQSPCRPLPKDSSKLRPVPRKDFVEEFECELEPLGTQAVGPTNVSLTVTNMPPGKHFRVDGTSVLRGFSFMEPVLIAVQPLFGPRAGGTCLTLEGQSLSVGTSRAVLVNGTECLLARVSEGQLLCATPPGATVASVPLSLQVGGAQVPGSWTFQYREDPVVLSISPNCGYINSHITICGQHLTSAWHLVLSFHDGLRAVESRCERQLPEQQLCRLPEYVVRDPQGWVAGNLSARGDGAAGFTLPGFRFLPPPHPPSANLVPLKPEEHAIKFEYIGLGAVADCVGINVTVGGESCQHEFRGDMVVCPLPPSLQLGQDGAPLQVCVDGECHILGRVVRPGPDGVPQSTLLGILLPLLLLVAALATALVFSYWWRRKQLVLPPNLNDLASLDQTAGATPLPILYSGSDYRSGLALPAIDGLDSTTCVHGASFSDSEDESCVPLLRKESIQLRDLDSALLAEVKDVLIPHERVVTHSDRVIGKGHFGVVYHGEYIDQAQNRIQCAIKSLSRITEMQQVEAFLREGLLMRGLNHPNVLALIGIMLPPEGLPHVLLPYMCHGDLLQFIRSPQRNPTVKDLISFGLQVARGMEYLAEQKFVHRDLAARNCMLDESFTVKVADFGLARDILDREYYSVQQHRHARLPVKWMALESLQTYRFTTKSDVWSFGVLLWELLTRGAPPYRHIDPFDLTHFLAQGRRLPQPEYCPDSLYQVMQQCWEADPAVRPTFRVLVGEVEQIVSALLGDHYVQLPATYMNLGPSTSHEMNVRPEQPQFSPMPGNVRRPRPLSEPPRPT

smiles entry: O=C1Nc2ccc(F)cc2/C1=C1/Nc2ccccc2/C1=N\O
IC50: > 10 µM

* * *

Molecular target: Insulin receptor (Homo sapiens, UniProt P06213)
Sequence (P06213 28-758 limits assumed): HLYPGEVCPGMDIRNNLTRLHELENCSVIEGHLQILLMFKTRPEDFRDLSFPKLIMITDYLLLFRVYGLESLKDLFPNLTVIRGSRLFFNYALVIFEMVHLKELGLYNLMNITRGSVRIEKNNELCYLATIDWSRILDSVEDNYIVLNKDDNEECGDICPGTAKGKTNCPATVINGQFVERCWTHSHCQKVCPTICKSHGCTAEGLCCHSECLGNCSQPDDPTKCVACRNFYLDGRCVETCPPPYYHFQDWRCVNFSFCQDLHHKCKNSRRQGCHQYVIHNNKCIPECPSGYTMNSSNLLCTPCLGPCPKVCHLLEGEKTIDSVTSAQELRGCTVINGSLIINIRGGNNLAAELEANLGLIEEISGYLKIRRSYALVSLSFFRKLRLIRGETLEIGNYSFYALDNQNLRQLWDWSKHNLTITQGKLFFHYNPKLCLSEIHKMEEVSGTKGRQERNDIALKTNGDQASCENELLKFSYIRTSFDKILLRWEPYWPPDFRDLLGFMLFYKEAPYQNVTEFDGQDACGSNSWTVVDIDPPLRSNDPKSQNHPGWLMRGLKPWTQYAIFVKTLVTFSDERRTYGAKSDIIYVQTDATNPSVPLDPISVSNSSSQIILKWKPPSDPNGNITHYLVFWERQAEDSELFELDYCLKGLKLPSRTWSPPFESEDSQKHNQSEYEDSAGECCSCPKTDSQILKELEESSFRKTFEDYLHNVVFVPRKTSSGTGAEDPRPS
Sequence (P06213 763-1382 limits assumed): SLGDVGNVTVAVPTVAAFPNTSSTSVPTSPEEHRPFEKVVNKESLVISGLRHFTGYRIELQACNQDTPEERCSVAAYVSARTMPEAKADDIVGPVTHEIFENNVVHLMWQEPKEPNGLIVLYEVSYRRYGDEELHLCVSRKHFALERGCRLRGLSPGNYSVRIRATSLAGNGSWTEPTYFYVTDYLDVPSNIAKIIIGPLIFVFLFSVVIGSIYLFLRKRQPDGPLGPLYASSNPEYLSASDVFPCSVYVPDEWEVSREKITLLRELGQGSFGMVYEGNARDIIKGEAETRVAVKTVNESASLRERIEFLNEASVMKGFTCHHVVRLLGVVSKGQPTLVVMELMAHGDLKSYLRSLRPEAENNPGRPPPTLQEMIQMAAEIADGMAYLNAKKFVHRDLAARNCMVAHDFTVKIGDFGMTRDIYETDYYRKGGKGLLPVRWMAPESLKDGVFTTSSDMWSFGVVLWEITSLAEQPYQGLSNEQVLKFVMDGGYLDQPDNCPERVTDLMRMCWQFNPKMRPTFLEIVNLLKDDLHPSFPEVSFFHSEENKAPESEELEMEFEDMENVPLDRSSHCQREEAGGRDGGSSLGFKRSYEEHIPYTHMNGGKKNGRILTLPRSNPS
pIC50: −log10 of the molar value.

smiles entry: O=C1Nc2ccc(F)cc2/C1=C1/Nc2ccccc2/C1=N\O
pIC50: < 5.00

All figures here come from ChEMBL document CHEMBL1155384.
